Would you mind telling me the reported Relative Luciferase Units (RLU), CD80-Fe Cone 50 nM of each entry?
target: CD28 (Homo sapiens, UniProt P10747); test: Jurkat/IL2 + K562/OKT3/PD-L1 reporter assay; type: cell-based; design: host or cells: Jurkat cells expressing an IL-2-luciferase reporter; conditions: Table E8; K562/OKT3/PD-L1 aAPC; 50 nM
Answers are plain numbers, in RLU.

Previously resolved entries follow.
[
  {
    "molecule": "E35D/M47V/N48K/V68M/K89N: variant CD80 IgV-Fc, IgV SEQ ID NO:465 (protein) VIHVTKEVKEVATLSCGHNVSVEELAQTRIYWQKDKKMVLTMMSGDVKIWPEYKNRTIFDITNNLSIMILALRPSDEGTYECVVLKYENDAFKREHLAEVTLSVKAD",
    "output_unit": "RLU",
    "assay_value": 1439
  },
  {
    "molecule": "T28Y/Q33H/E35D/D46V/M47I/A71G (protein, CD80 v291 ECD) VIHVTKEVKEVATLSCGHNVSVEELAQYRIYWHKDKKMVLTMMSGVINIWPEYKNRTIFDITNNLSIVILGLRPSDEGTYECVVLKYEKDAFKREHLAEVTLSVKADFPTPSISDFETPTSNIRRIICSTSGGFPEPHLSWLENGEELNAINTTVSQDPETELYAVSSKLDFNMTTNHSFMCLIKYGHLRVNQTFNWNTTKQEHFPDN",
    "output_unit": "RLU",
    "assay_value": 580
  }
]

input: What Relative Luciferase Units (RLU), CD80-Fe Cone 50 nM value was documented for this molecule, E35D/M47V/N48T/L85Q (protein, UniProt P33681 35-288, looked up, variant E35D M47V N48T L85Q) T-lymphocyte activation …: VIHVTKEVKEVATLSCGHNVSVEELAQTRIYWQKDKKMVLTMMSGDVTIWPEYKNRTIFDITNNLSIVILALRPSDEGTYECVVQKYEKDAFKREHLAEVTLSVKADFPTPSISDFEIPTSNIRRIICSTSGGFPEPHLSWLENGEELNAINTTVSQDPETELYAVSSKLDFNMTTNHSFMCLIKYGHLRVNQTFNWNTTKQEHFPDNLLPSWAITLISVNGIFVICCLTYCFAPRCRERRRNERLRRESVRPV ?
output: 897
